- Tested on: BT-549
- protocolText: NCI tumour cell line growth inhibition, 48 h
Activity calls are given as the source filed them. Cut-off read from the data, not from the text of the source: active = GI50 up to about 1.1 µM and inactive = higher.
Reply using exactly one outcome from YES = active, NO = inactive

Before answering, review these 5 worked examples.
* COc1cc(C2CC(C)(Nc3ccccc3)Oc3cc4c(cc32)OCO4)cc(OC)c1OC (centres undefined) | YES
* C[C@@H]1C[C@@H]2OC(=O)[C@]3(C)[C@H]2[C@@H](OC3(C)O)[C@]2(C)C(=O)C=C[C@@H]12 (some centres undefined) | NO
* COc1ccc(-c2nc(-c3cnccn3)n(C3OC(CO)C(O)C3O)n2)cc1 (centres undefined) | NO
* CC(=O)CC[N+](C)(C)C | NO
* Cc1coc2c1C(OC(=O)C(C)C)C1(C)C(C)CCC(O)C1C2=O (centres undefined) | NO

Please turn your attention to the following entry.
INPUT: What classification did N#CC1=C(S)N(C2OC(CO)C(O)C(O)C2O)C(c2ccccc2)=CC1c1ccccc1 (centres undefined) end up with in this test?
OUTPUT: NO

---

Entries and their measured GI50 follow.
- Test system: SK-MEL-2
- protocolText: NCI tumour cell line growth inhibition, 48 h
Calls of active or inactive are those of the source. Cut-off read from the data, not from the text of the source: active = GI50 up to about 1.1 µM and inactive = higher.

Examples with answers:
• CC(C)C1CC(O)O[C@@H]([C@@H](C)[C@H]2CC(=O)[C@@H]3[C@@H]4[C@@H](O)[C@H](O)[C@H]5[C@@H](O)[C@H](O)CC[C@]5(C)[C@H]4CC[C@]23C)C1 (some centres undefined) = 53.6 µM (inactive)
• CCCCCCC(C)CC(CCCCCC)NCCOC(=O)c1ccc([N+](=O)[O-])cc1 (centres undefined) = 15.8 µM (inactive)
• Cc1cc(=O)oc2c(CNC(CO)C(=O)O)c(O)ccc12 (centres undefined) = > 100 µM (inactive)
• O=c1c2ccccc2c2c1c1c3ccccc3c(=O)c1c1c3ccccc3c(=O)c21 = > 100 µM (inactive)
• CCOC(=O)/C(=C\c1ccccc1)C(=O)CCN1CCOCC1 = 17.8 µM (inactive)
• CC(SC(=S)N1CCCC1)C(=O)Nc1nnc(-c2ccc(Cl)cc2)o1 (centres undefined) = 30.5 µM (inactive)
• O=c1oc2ccccc2c(O)c1C(C/C(CCN1CCCC1)=N/O)c1ccccc1 (centres undefined) = > 100 µM (inactive)
• CC(=O)Nc1ccc(-c2nnc(SCC(=O)Nc3cccc([N+](=O)[O-])c3)o2)cc1 = 18.3 µM (inactive)
• NC(=S)Nc1nnc(-c2ccc(-c3nnc(NC(N)=S)o3)cc2)o1 = > 100 µM (inactive)
• c1ccc(/N=c2/[nH]c3ccccc3s/c2=N/c2ccccc2)cc1 = 77.1 µM (inactive)

INPUT: State its GI50: "CC1=NN2CCC(=O)N=C2S1"
OUTPUT: > 100 µM (inactive)

INPUT: State its GI50: "Nc1c(Cl)ncnc1NCCCNc1ncnc(Cl)c1N"
OUTPUT: > 100 µM (inactive)

INPUT: State its GI50: "CCOc1cc(/C=N/c2ccc(Oc3ccc(Cl)cc3)c(Cl)c2)ccc1O"
OUTPUT: 24.5 µM (inactive)

---

- Test system: HCC 2998
- protocolText: NCI tumour cell line growth inhibition, 48 h
The source made the active and inactive calls. No stated cut-off is given here; in the data, active = GI50 up to about 1.1 µM and inactive = higher.
Reply using exactly one outcome from label 1 (active), label 0 (inactive)

Before answering, review these 10 worked examples.
- COc1ccc(OC)c2c(=S)c3ccccc3[nH]c12: label 0
- O=C(Nc1ccc(Cl)cc1Cl)C1C(=O)N(c2ccc(Cl)cc2Cl)C(=O)/C1=N\Nc1ccc([N+](=O)[O-])cc1[N+](=O)[O-] (stereo not given): label 0
- CCOC(=O)/C=C1\Nc2ccccc2-n2nnnc21: label 0
- CC[C@H](C)[C@H]1NC(=O)[C@@H](NC(=O)[C@@H](CC(C)C)N(C)C(=O)C2CCCN2C(=O)[C@H](C)O)[C@@H](C)OC(=O)[C@H](Cc2ccccc2)N(C)C(=O)[C@@H]2CCCN2C(=O)[C@H](CC(C)C)NC(=O)[C@@H](C)C(=O)[C@H](C(C)C)OC(=O)C[C@@H]1O (stereo not given in full): label 1
- c1ccc2c(c1)[nH]c1c2nc2ncccn21: label 0
- CN1CN(c2ccccc2)C2(CCN(CCc3csc4ccccc34)CC2)C1=O: label 0
- CCCCC/C(C=O)=C\c1ccccc1: label 0
- COc1cc(/C=C2/C(=O)N(C(=O)c3ccccc3O)N=C2C)ccc1O: label 0
- CCOC(=O)c1c(SCCN(CC)CC)n(-c2ccccc2)c(=S)n(-c2ccccc2)c1=O: label 0
- Fc1ccc(F)c(C2SCc3nc4ccccc4n32)c1 (stereo not given): label 0

INPUT: What classification did "COc1ccc([C@H]2CC(=O)C[C@H](c3ccc(OC)cc3)C23C(=O)c2ccccc2C3=O)cc1" end up with in this test?
OUTPUT: label 0

INPUT: What classification did "Oc1ccc(-c2nc(-c3cccnc3)c(-c3ccc(Cl)cc3)[nH]2)cc1" end up with in this test?
OUTPUT: label 0

INPUT: What classification did "COc1cc(OC)c2ssc3c(OC)cc(OC)c4ssc1c2-c43" end up with in this test?
OUTPUT: label 0

INPUT: What classification did "CCOP(=O)(OCC)c1c(C(=O)OC)cc(=O)[nH]c1-c1ccc(C)cc1" end up with in this test?
OUTPUT: label 0

INPUT: What classification did "CSc1ccc(/C=C2\CN(C)C/C(=C\c3ccc(SC)cc3)C2=O)cc1" end up with in this test?
OUTPUT: label 0

---

- Tested on: OVCAR-5
- protocolText: NCI tumour cell line growth inhibition, 48 h
Activity calls are given as the source filed them. No stated cut-off is given here; in the data, active = GI50 up to about 1.1 µM and inactive = higher.
observationType: GI50

Examples with answers:
* CC(C)(C)C1CCC2c3c([nH]c4ccccc34)C3C(=O)N(c4ccccc4[N+](=O)[O-])C(=O)C3C2C1 (centres undefined) | 16.9 µM (inactive)
* COC(=O)c1cc(S(=O)(=O)NC2=NNC(C)CN2)c(S)cc1Cl (centres undefined) | 65.3 µM (inactive)
* CS/C(=N\c1ccc([N+](=O)[O-])cc1C#N)NC(=O)c1ccccc1 | > 100 µM (inactive)
* Cc1ccc(NC(=O)CCC(=O)C(C#N)c2ccccc2)cc1C (centres undefined) | > 100 µM (inactive)
* COc1ccc(-n2c(SC(CN3CCOCC3)CN3CCCC3=O)nc3ccccc3c2=O)cc1 (centres undefined) | > 100 µM (inactive)
* N#Cc1c(N2CCCC2)ncn(-c2ccccc2)c1=O | > 100 µM (inactive)
* C[C@@H](Oc1ccc(Oc2cnc3ccc(Cl)cc3n2)cc1)C(=O)O [R(+)XK469] | > 100 µM (inactive)
* COc1cc2c(c(O)c1OC)C(=O)C1CCC(=O)N1C2c1cccc2ccccc12 (centres undefined) | 94.4 µM (inactive)

Shifting focus to the molecule that follows.
INPUT: State its GI50: C[N+]1(C)CCc2cc(O)c(O)cc2C1Cc1ccc(O)c(O)c1 (centres undefined)
OUTPUT: > 100 µM (inactive)

---

- System: NCI-H23
- protocolText: NCI tumour cell line growth inhibition, 48 h
Active and inactive are the calls of the source. No stated cut-off is given here; in the data, active = GI50 up to about 1.1 µM and inactive = higher.
observationType: GI50

Examples with answers:
* N=c1c2c(=S)n(-c3ccccc3)c(=S)n(-c3ccccc3)c2nc(SCCN2CCOCC2)n1-c1ccccc1 | 2.67 µM (inactive)
* COc1ccc([C@H]2CC(=O)C[C@H](c3ccc(OC)cc3)C23C(=O)c2ccccc2C3=O)cc1 | 26.1 µM (inactive)
* CCOC(=O)C1=C(C(=O)c2ccc(C)cc2)C(c2cccc([N+](=O)[O-])c2)C(C(=O)c2ccc(C)cc2)=C(C(=O)OCC)N1 | 15.8 µM (inactive)

INPUT: State its GI50: "COC(=O)[C@H](Cc1c[nH]c2ccccc12)NC(=O)c1ccc(CNC(=O)/C=C/c2cccc(Oc3ccccc3)c2)cc1"
OUTPUT: 52.6 µM (inactive)

INPUT: State its GI50: "Oc1ccc(-c2nc(-c3cccnc3)c(-c3ccc(Cl)cc3)[nH]2)cc1"
OUTPUT: 13 µM (inactive)

INPUT: State its GI50: Cc1cn(C2CC(O)C(Cn3cc(Cn4ncc(=O)[nH]c4=O)nn3)O2)c(=O)[nH]c1=O (configuration not stated)
OUTPUT: > 100 µM (inactive)

INPUT: State its GI50: O=C(CC1(O)C(=O)Nc2ccc([N+](=O)[O-])cc21)c1ccc2ccccc2c1 (configuration not stated)
OUTPUT: > 100 µM (inactive)

INPUT: State its GI50: "Oc1cccc(/C=N/N=c2/[nH][nH]/c(=N/N=C/c3cccc(O)c3)c3ccccc23)c1"
OUTPUT: 16.2 µM (inactive)

INPUT: State its GI50: "Cc1cc(=O)oc2cc3oc(N(C)c4ccccc4)nc(=O)c3cc12"
OUTPUT: > 100 µM (inactive)

---

Entries and their measured GI50 follow.
- Tested on: SK-MEL-2
- protocolText: NCI tumour cell line growth inhibition, 48 h
Active and inactive are the calls of the source. No stated cut-off is given here; in the data, active = GI50 up to about 1.1 µM and inactive = higher.

• CCOC1C=CC(=O)C(CO)O1 (centres undefined) = 19.4 µM (inactive)
• CCOC(=O)C1=C(C(=O)c2ccc(C)cc2)C(c2cccc([N+](=O)[O-])c2)C(C(=O)c2ccc(C)cc2)=C(C(=O)OCC)N1 = 26.1 µM (inactive)

INPUT: State its GI50: "CCN(CC)Cc1ccccc1CC(=O)N1c2ccccc2C(=O)Nc2cccnc21"
OUTPUT: > 100 µM (inactive)

INPUT: State its GI50: "O=C(O)CCCNc1ncc2c(n1)-c1ccccc1OC2"
OUTPUT: > 100 µM (inactive)
